- Measured On: Cytochrome P450 1A2 (Homo sapiens) (UniProt P05177)
- Sequence (P05177 whole entry, looked up): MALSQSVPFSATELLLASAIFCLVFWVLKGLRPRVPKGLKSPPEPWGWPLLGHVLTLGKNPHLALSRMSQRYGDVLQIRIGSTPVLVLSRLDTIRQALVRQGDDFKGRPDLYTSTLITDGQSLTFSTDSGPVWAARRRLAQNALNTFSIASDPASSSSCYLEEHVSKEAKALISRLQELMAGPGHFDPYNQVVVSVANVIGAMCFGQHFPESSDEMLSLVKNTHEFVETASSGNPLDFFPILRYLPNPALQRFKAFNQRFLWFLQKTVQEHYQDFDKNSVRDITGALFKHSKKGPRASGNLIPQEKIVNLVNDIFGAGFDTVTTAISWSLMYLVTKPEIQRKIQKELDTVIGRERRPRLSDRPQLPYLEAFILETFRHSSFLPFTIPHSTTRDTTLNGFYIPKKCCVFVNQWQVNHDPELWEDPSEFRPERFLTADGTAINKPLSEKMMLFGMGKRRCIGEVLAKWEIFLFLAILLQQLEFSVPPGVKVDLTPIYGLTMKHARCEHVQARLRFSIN
- Method: Cytochrome P450 Family 1 Subfamily A Member 2 (CYP1A2) small molecule antagonists: luciferase reporter qHTS assay (AID 1671199); also: nearly all actives have a fitted effect of over 50% in size
- Condition Set: P450-Glo CYP1A2 enzyme, luciferin luminescence, 1 h; series mostly up to 115 µM
- Text: National Center for Advancing Translational Sciences [NCATS] U.S. Environmental Protection Agency [EPA] National Institutes of Environmental Health Sciences [NIEHS] National Toxicology Program [NTP] U.S. Food and Drug Administration [FDA] Cytochrome P450 (CYP) enzymes are membrane-bound hemeproteins that play a key role in metabolism of drugs and xenobiotics. […] The luciferin products formed are detected with a luciferin detection reagent, and the amount of light produced is proportional to CYP activity. […]
Results filed as inconclusive are left out. Calls of active or inactive are those of the source. Calls follow the shape of the dose curve; as a rule, active = well fitted inhibition curve with a large enough effect in the repeat runs; inconclusive = weak or mixed curves; inactive = no such curve, though single readings can be large or run the other way.
Lab note: assign the record to one of active, inactive

Use these answered entries as a reference point.
> print(dat)
                                   compound  discrete.label
1  Cc1nc(Nc2ncc(C(=O)Nc3c(C)cccc3Cl)s2)cc(N2CCN(CCO)CC2)n1        inactive
2                             COc1ccccc1C=O        inactive
3       C[C@@]12C(=O)OC(=O)[C@]1(C)C1CCC2O1        inactive
4                       c1ccc(Sc2ccccc2)cc1          active
5  COc1cc(C=C2CCC/C(=C\c3ccc(O)c(OC)c3)C2=O)ccc1O        inactive

Request: So what was the verdict on `CCCCCCCOC(=O)c1ccccc1C(=O)OCCCCCCC` in this test?
Result: active

Request: So what was the verdict on `C(=C/c1ccccc1)/c1ccccc1` in this test?
Result: inactive

Request: So what was the verdict on C=CC(C)C#N (configuration not stated) in this test?
Result: inactive

Request: So what was the verdict on COc1cccc(CCc2ccccc2OCC(CN(C)C)OC(=O)CCC(=O)O)c1 (configuration not stated) in this test?
Result: active

----------
- Measured On: Androgen receptor (Homo sapiens)
- Method: qHTS assay to identify small molecule antagonists of the androgen receptor (AR) signaling pathway using the MDA cell line (AID 743042; also: nearly all actives have a fitted effect of over 55% in size)
- Condition Set: MDA-kb2 AR-luc, MMTV luciferase, R1881 antagonist, 16 h; series mostly up to 70.3 µM
Inconclusive results are not listed. Activity calls are given as the source filed them. Calls follow the shape of the dose curve; as a rule, active = well fitted inhibition curve with a large enough effect in the repeat runs; inconclusive = weak or mixed curves, or effect the other way; inactive = no such curve, though single readings can be large or run the other way.
Lab note: assign the record to one of 1.0 (active), 0.0 (inactive)

> print(dat)
                                   compound  discrete.label
1         CCN(CC)CCOC(=O)C1(C2CCCCC2)CCCCC1             0.0
2  Clc1ccc(C(Cn2ccnc2)OCc2c(Cl)cccc2Cl)c(Cl)c1 (centres undefined)             0.0
3              CN(C)c1ccc(N=NS(=O)(=O)O)cc1             1.0

Attention now shifts to the item below.
Request: So what was the verdict on `O=C1c2c(O)ccc(O)c2C(=O)c2c(NCCNCCO)ccc(NCCNCCO)c21` in this test?
Result: 1.0

----------
- Method: qHTS assay to identify small molecule agonists of the hypoxia (HIF-1) signaling pathway - cell viability counter screen (AID 1224844); also: nearly all actives have a fitted effect of over 50% in size; also: potency is read from the fitted curve at half-maximal effect
- Condition Set: HRE-bla ME-180 viability, CellTiter-Glo luminescence, 17 h; series mostly up to 76.8 µM
Records with an inconclusive call do not appear. Active and inactive are the calls of the source. Calls come from the whole dose curve.
Observation Type: Potency

Use these answered entries as a reference point.
> print(dat)
                                   compound         reading
1         CCCCNc1c(C(=O)OCC)c(C)nc2c1cnn2CC        inactive
2                                  O=CC1CC1        inactive
3  CCC(C)c1ccccc1 (configuration not stated)        inactive
4              NCCCC(O)(P(=O)(O)O)P(=O)(O)O        inactive
5                         Cn1cnc2ncnc(N)c21        inactive
6                 CCCCCCCCCCCCCC[n+]1ccccc1  49 µM (active)

Request: Which Potency is listed for `C=CC(=C)CCC=C(C)C` ?
Result: inactive

Request: Which Potency is listed for `C[C@@H]1CC[C@H]2C(C)(C)[C@H]3C[C@@]12CC[C@@]3(C)O` ?
Result: inactive

Request: Which Potency is listed for `CCCCCCCCCCCCCOP(=O)(O)O` ?
Result: inactive

Request: Which Potency is listed for `CC(=O)Oc1ccc(C2(c3ccc(OC(C)=O)cc3)C(=O)Nc3ccccc32)cc1` ?
Result: 0.0425 µM (active)

Request: Which Potency is listed for `CCc1cccc(CC)c1N(COC)C(=O)CS(=O)(=O)O` ?
Result: inactive

Request: Which Potency is listed for `CCO[Si](C)(C)OCC` ?
Result: inactive

Request: Which Potency is listed for `CC(=O)c1ccccc1N` ?
Result: inactive

Request: Which Potency is listed for CCCCC(CC)COC(=O)c1ccc(O)cc1 (configuration not stated) ?
Result: 49 µM (active)

Request: Which Potency is listed for C=CC(C)C#N (configuration not stated) ?
Result: inactive

Request: Which Potency is listed for `O=Cc1ccc(F)cc1` ?
Result: inactive

Request: Which Potency is listed for `O=C(c1ccccc1)c1cc(Cl)ccc1O` ?
Result: inactive

----------
- Method: A CellTox Green Cytotoxicity Assay to monitor cytotoxicity in HEK293 cells - 40 hour (AID 1224871); also: nearly all actives have a fitted effect of over 45% in size
- Condition Set: CellTox Green fluorescence; series mostly up to 76.8 µM
Inconclusive results are not listed. Calls of active or inactive are those of the source. Calls follow the shape of the dose curve; as a rule, active = well fitted activation curve with a large enough effect in the repeat runs; inconclusive = weak or mixed curves; inactive = flat fitted curve, though single readings scatter.
Lab note: assign the record to one of active, inactive

> print(dat)
                                   compound  discrete.label
1  COC(=O)CC(C)CCC=C(C)C (stereo not given)        inactive
2                             CC1=CCC(=O)O1        inactive
3  O[C@@H](c1cc(C(F)(F)F)nc2c(C(F)(F)F)cccc12)[C@H]1CCCCN1          active
4  C[C@@H]1CC[C@H]2C(C)(C)[C@H]3C[C@@]12CC[C@@]3(C)O          active

Request: So what was the verdict on `O=Cc1ccc(F)cc1` in this test?
Result: inactive

----------
- Measured On: Nuclear receptor subfamily 1 group I member 3 (Homo sapiens)
- Method: qHTS assay to identify small molecule antagonists of the constitutive androstane receptor (CAR) signaling pathway (AID 1224838);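 also: HepG2 cells stably expressing hCAR with CYP2B6 luciferase reporter stimulated by CITCO; nearly all actives have a fitted effect of over 40% in size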
- Condition Set: HepG2-CYP2B6-hCAR luciferase, CITCO-stimulated, 24 h; series mostly up to 92.4 µM
Inconclusive results are not listed. Active and inactive are the calls of the source. The call rests on the fitted dose curve; in most records, active means well fitted inhibition curve with a large enough effect in the repeat runs; inconclusive means weak or mixed curves, or effect the other way; inactive means no such curve, though single readings can be large or run the other way.
Lab note: assign the record to one of active, inactive

> print(dat)
      chemical.string                               measured.on  discrete.label
1  CCCCCCOc1ccc(O)cc1  Nuclear receptor subfamily 1 group I member 3 (Homo sapiens)        inactive

Request: So what was the verdict on `CCCCCCCCCCCC(=O)N(CC)CC` in this test?
Result: inactive

Request: So what was the verdict on `C=CC(=O)OCCN(CC)CC` in this test?
Result: inactive

Request: So what was the verdict on `O=C1C=CC(=O)N1c1ccccc1` in this test?
Result: active

Request: So what was the verdict on `CC(C)(C)c1cc(CCC(=O)NCCCCCCNC(=O)CCc2cc(C(C)(C)C)c(O)c(C(C)(C)C)c2)cc(C(C)(C)C)c1O` in this test?
Result: active

----------
- Measured On: Estrogen receptor (Homo sapiens)
- Method: qHTS assay to identify small molecule antagonists of the estrogen receptor alpha (ER-alpha) signaling pathway using the BG1 cell line in the presence of 0.1 nM 17-beta-estradiol (AID 1259244); also: nearly all actives have a fitted effect of over 50% in size; also: potency is read from the fitted curve at half-maximal effect
- Condition Set: VM7Luc4E2 (BG1) ERE-luciferase, antagonist mode, 0.1 nM E2, 22 h; series mostly up to 92.4 µM
Results filed as inconclusive are left out. The source made the active and inactive calls. Calls come from the whole dose curve; as a rule, active = well fitted inhibition curve with a large enough effect in the repeat runs; inconclusive = weak or mixed curves; inactive = no such curve, though single readings can be large or run the other way.
Observation Type: Potency

Use these answered entries as a reference point.
> print(dat)
                          chemical.string  observation.type           reading
1        CCC(C)(C)c1cc(O)c(C(C)(C)CC)cc1O           Potency  68.6 µM (active)
2    CCc1cccc(CC)c1N(COC)C(=O)CS(=O)(=O)O           Potency          inactive
3  O=C(O)Cc1ccc(OCCNC[C@H](O)c2ccccc2)cc1           Potency          inactive
4                            Cc1ccc(O)cn1           Potency          inactive
5                      CCN(CC)c1cccc(C)c1           Potency          inactive

As a next step, examine the compound that follows.
Request: Lab request: please report Potency under test system Estrogen receptor (Homo sapiens) for `C=C(C)CCCC`
Result: inactive
